system: EGFR Exon 20 InsNPH Ba/F3; test: CellTiter-Glo cell viability, EGFR Exon 20 InsNPH Ba/F3; format: cell-based; conditions: Mus musculus, BaF3, 72 h, read-out: EGFR Exon 20 InsNPH Ba/F3 CTG IC50
pIC50: −log10 of the molar value.
measured_parameter: pIC50

Solved entries:
{"compound": "C=CC(=O)Nc1cc(-c2c(-c3cnn(CCC)c3)[nH]c3ncc(C(=O)OC(C)C)c(C)c23)ccc1C", "measured_parameter": "pIC50", "experimental_value": "7.00 to 7.30"}
{"compound": "C=CC(=O)Nc1cc(-c2c(-c3cnn(CC(C)O)c3)[nH]c3ncc(C(=O)OC(C)C)c(C)c23)ccc1C (stereo not shown)", "measured_parameter": "pIC50", "experimental_value": "6.30 to 7.00"}
{"compound": "C=CC(=O)Nc1cc(-c2c(-c3cnn(C)c3)[nH]c3ncc(O[C@@H](C)CC)cc23)ccc1C [Example 12, 2,2,2-trifluoroacetate]", "measured_parameter": "pIC50", "experimental_value": "6.30 to 7.00"}

Ask | EGFR Exon 20 InsNPH Ba/F3 / pIC50 / `C=CC(=O)Nc1cc(-c2c(-c3cnn(C)c3)[nH]c3ncc(-c4cnn(C5COC5)c4)cc23)ccc1C` : value?
Reply | 6.00 to 6.30

###

target: EGFR T790M L858R (Homo sapiens, UniProt P00533, L858R/T790M); experiment: Lance assay, EGFR T790M L858R; conditions: biochemical Lance assay
Sequence (P00533 25-1210 T790M/L858R): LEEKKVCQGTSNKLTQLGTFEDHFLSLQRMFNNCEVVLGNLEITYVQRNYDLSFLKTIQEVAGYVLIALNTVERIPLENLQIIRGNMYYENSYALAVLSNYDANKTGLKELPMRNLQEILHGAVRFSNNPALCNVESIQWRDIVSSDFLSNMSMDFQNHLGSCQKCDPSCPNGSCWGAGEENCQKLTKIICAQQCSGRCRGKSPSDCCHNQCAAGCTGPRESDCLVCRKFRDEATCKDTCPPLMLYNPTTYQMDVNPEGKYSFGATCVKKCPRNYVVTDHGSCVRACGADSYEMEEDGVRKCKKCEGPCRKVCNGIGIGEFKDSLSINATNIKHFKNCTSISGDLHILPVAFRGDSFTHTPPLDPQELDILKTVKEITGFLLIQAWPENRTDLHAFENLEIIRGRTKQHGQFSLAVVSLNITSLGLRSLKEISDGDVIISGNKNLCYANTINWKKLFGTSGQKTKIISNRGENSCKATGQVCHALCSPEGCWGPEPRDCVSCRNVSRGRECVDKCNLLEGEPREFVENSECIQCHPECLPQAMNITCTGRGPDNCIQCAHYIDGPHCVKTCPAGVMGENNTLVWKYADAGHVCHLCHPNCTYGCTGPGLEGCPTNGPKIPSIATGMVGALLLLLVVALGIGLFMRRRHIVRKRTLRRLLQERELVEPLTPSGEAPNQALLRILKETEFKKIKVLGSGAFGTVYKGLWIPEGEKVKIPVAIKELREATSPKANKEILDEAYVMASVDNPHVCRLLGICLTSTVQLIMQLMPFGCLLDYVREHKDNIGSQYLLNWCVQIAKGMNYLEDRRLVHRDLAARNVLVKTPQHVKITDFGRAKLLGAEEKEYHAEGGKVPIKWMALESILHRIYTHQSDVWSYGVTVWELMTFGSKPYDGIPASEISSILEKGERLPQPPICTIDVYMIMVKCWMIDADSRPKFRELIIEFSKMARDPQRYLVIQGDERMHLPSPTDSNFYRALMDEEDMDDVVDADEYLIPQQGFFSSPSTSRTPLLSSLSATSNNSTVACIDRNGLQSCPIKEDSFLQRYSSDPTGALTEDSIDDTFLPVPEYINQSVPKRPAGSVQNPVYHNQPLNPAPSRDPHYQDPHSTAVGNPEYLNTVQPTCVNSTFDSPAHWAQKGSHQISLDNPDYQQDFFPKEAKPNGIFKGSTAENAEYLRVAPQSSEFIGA
measured_parameter: IC50

{"mol": "C=CC(=O)Nc1cc(-c2c(-c3cnn(CC4CC4)c3)[nH]c3ncc(C(=O)OC(C)C)c(C)c23)ccc1C", "experimental_value": "≤ 50 nM"}
{"mol": "C=CC(=O)Nc1cc(-c2c(-c3cnn(CCN4CCOCC4)c3)[nH]c3ncc(C(=O)OC(C)C)c(C)c23)ccc1C", "experimental_value": "≤ 50 nM"}
{"mol": "C=CC(=O)Nc1cc(-c2c(-c3cnn(C)c3)[nH]c3ncc(-c4cnn(C)c4C)cc23)ccc1C", "experimental_value": "≤ 50 nM"}

Ask | Which IC50 is listed for `C=CC(=O)Nc1cc(-c2c(-c3cnn(C4CCC4)c3)[nH]c3ncc(C(=O)OC(C)C)c(C)c23)ccc1C` ?
Reply | 100 to 500 nM

Ask | Request the reported IC50 associated with `C=CC(=O)Nc1cc(-c2c(-c3cnn(C)c3)[nH]c3ncc(-c4ccnn4C)cc23)ccc1C`
Reply | ≤ 50 nM

Ask | Form field: reported IC50 of `C=CC(=O)Nc1cc(-c2c(-c3cnn(C)c3)[nH]c3ncc(-c4cnn(CCN(C)C)c4)cc23)ccc1C`
Reply | 100 to 500 nM

Ask | Entry under review: `C=CC(=O)Nc1cc(-c2c(-c3cnn(CCOC)c3)[nH]c3ncc(C(=O)OC(C)C)c(C)c23)ccc1C` . Reported IC50?
Reply | ≤ 50 nM

###

tested on: EGFR vIII Ba/F3; test: CellTiter-Glo cell viability, EGFR vIII Ba/F3; format: cell-based; conditions: Mus musculus, BaF3, 72 h, read-out: EGFR vIII Ba/F3 CTG IC50 /
Listed below: IC50 values for each entry.

Ask | Sample `C=CC(=O)Nc1cc(-c2c(-c3cnn(C)c3)[nH]c3ncc(-c4cn(C)nc4C)cc23)ccc1C` — what was its IC50?
Reply | 100 to 500 nM

Ask | What value of measured IC50 is listed for `C=CC(=O)Nc1cc(-c2c(-c3cnn(CC)c3)[nH]c3ncc(C(=O)OC(C)C)cc23)cc(F)c1C` ?
Reply | 100 to 500 nM

Ask | May I ask what IC50 has been recorded for C=CC(=O)Nc1cc(-c2c(-c3cnn(C)c3)[nH]c3ncc(C(=O)OC(C)C)cc23)cc(F)c1C [Example 2, 2,2,2-trifluoroacetate] ?
Reply | ≤ 50 nM

Ask | I would be grateful if you could share the reported IC50 for C=CC(=O)Nc1cc(-c2c(-c3cnn(C)c3)[nH]c3ncc(OCC)cc23)cc(F)c1C [Example 3, 2,2,2-trifluoroacetate] .
Reply | ≤ 50 nM

Ask | # lookup: IC50 of C=CC(=O)Nc1cc(-c2c(-c3cnn(C)c3)[nH]c3ncc(OCC(C)C)cc23)ccc1C [Example 4, 2,2,2-trifluoroacetate]
Reply | ≤ 50 nM

Ask | Please report the recorded IC50 for `C=CC(=O)Nc1cc(-c2c(-c3cnn(C4CCC4)c3)[nH]c3ncc(C(=O)OC(C)C)c(C)c23)ccc1C` .
Reply | 100 to 500 nM

Ask | IC50 lookup needed for `C=CC(=O)Nc1cc(-c2c(-c3cnn(C)c3)[nH]c3ncc(-c4cnn(C)c4C)cc23)ccc1C` , thanks.
Reply | ≤ 50 nM

Ask | What does the record list as IC50 for `C=CC(=O)Nc1cc(-c2c(-c3cnn(CCC)c3)[nH]c3ncc(C(=O)OC(C)C)c(C)c23)ccc1C` ?
Reply | 100 to 500 nM
